# Tested on: BT-474
# METHOD NOTES: relative IC50 (midpoint of fitted logistic curve, plateau may be below 50% inhibition; CellTiter-Glo viability); higher = less potent
# EXPERIMENTAL CONTEXT: 4-OH-tamoxifen in medium 0 µM; 72 h
Counter-ions that a name gives are not always drawn.
REPORTED METRIC: relative IC50

| MOLECULE | relative IC50 |
| --- | --- |
| Cn1c(CCCC(=O)O)nc2cc(N(CCCl)CCCl)ccc21 [Bendamustine (hydrochloride hydrate)] | > 10000 nM |
| CCc1c2c(nc3ccc(OC(=O)N4CCC(N5CCCCC5)CC4)cc13)-c1cc3c(c(=O)n1C2)COC(=O)[C@]3(O)CC | > 10000 nM |
| CCOc1cc2ncc(C#N)c(Nc3ccc(OCc4ccccn4)c(Cl)c3)c2cc1NC(=O)/C=C/CN(C)C | 9.18 nM |
| COc1cc2ncnc(Nc3ccc(F)c(Cl)c3)c2cc1OCCCN1CCOCC1 | 1030 nM |
| C[C@]12C=CC(=O)C=C1CC[C@@H]1[C@@H]2[C@@H](O)C[C@@]2(C)[C@H]1CC[C@]2(O)C(=O)CO | > 10000 nM |

Given the entry O=NN(CCCl)C(=O)NC1CCCCC1 , report its measured relative IC50.
> 10000 nM

Entry to check: C/C(=C\c1csc(C)n1)[C@@H]1C[C@@H]2O[C@]2(C)CCC[C@H](C)[C@H](O)[C@@H](C)C(=O)C(C)(C)[C@@H](O)CC(=O)N1 [Ixabepilone]
> 1000 nM

Then what about the molecule Oc1ncnc2[nH]ncc12 ?
> 10000 nM

====

# System: ZR-75-1 Tam1
# METHOD NOTES: drug sensitivity score (DSS) (DSS (dimensionless)); higher = more sensitive; extreme values may be limits of the assay
# EXPERIMENTAL CONTEXT: 4-OH-tamoxifen in medium 1 µM; 72 h
REPORTED METRIC: drug sensitivity score

Recorded results for 4 molecules are shown here.
| MOLECULE | drug sensitivity score |
| --- | --- |
| O=C(Nc1ccncc1)C(=O)c1cn(Cc2ccc(Cl)cc2)c2ccccc12 [Indibulin] | 0.0575 |
| OC[C@H]1O[C@@H](n2cnc3c2N=CNC[C@H]3O)C[C@@H]1O [Pentostatin] | 2.62 |
| O=C(Nc1cccnc1)N1CCC(Cc2cccc(Oc3ccc(C(F)(F)F)cn3)c2)CC1 [PF-3845] | 18.7 |
| CN1CC[C@H](c2c(O)cc(O)c3c(=O)cc(-c4ccccc4Cl)oc23)[C@H](O)C1 [Alvocidib (Flavopiridol)] | 7.64 |

Please look at the following molecule next.
Look up drug sensitivity score: Nc1ncn([C@@H]2O[C@H](CO)[C@@H](O)[C@H]2O)c(=O)n1 [Azacitidine]
0.0216

====

# System: BT-474
# METHOD NOTES: viability inhibition at highest dose (% inhibition); higher = more growth inhibition
# EXPERIMENTAL CONTEXT: 4-OH-tamoxifen in medium 1 µM; 72 h
Where a name gives a salt, the structure may show the parent alone.
Recorded viability inhibition at highest dose by entry
Respond numerically, and do not add a unit to the figure.

Below: 3 compounds and their reported viability inhibition at highest dose.
| COMPOUND | viability inhibition at highest dose |
| --- | --- |
| CCN(CC)CCOc1ccc(C(=C(Cl)c2ccccc2)c2ccccc2)cc1 [Clomifene citrate] (drug 10000 nM) | 84 |
| NC1(c2ccc(-c3nc4ccn5c(=O)[nH]nc5c4cc3-c3ccccc3)cc2)CCC1 [MK-2206] (drug 1000 nM) | 50.8 |
| C[C@]12CC[C@@H]3c4ccc(O)cc4C[C@@H](CCCCCCCCC[S+]([O-])CCCC(F)(F)C(F)(F)F)[C@H]3[C@@H]1CC[C@@H]2O (some centres undefined) [Fulvestrant] (drug 1000 nM) | -0.276 |

Now let's try a different one.
So what viability inhibition at highest dose did CCOc1cc2ncc(C#N)c(Nc3ccc(OCc4ccccn4)c(Cl)c3)c2cc1NC(=O)/C=C/CN(C)C [Neratinib] (drug 1000 nM) get with BT-474?
95

Value source: the supplement of paper PMC4932681
